System: NIH-3T3 murine fibroblast cell line
method notes: MTT cytotoxicity assay, 3T3 cells
Format: cell-based, mouse
condition info: mouse
Where a SMILES comes first, the peptide text is derived from it. [ ]: non-standard residue; d: D form.
observed property: pIC50
The scale used: pIC50 is minus the common logarithm of the concentration in molar units.

Problem: Consider the compound shown here: CC[C@H](C)[C@H](NC(=O)CNC(=O)[C@H](CO)NC(=O)[C@H](CC(C)C)NC(=O)[C@@H](N)Cc1ccccc1)C(=O)N[C@H](C(=O)NCC(=O)N[C@@H](CCSC)C(=O)N[C@@H](CC(C)C)C(=O)N[C@H](C)C(=O)N[C@@H](CCCCN)C(=O)N[C@@H](CC(C)C)C(=O)N[C@@H](Cc1ccccc1)C(N)=O)C(C)C [peptide 4, F-L-S-G-I-V-G-M-L-a-K-L-F] (H-FLSGIVGML[dA]KLF-NH2) What is its recorded pIC50?
Result: 4.80

----------
System: HeLa cells
method notes: MTT cytotoxicity assay, HeLa cells
Format: cell-based
condition info: MTT, 48 hours; listed as SEQ ID NO: 4; read-out: Cytotoxicity IC50, HeLa
Where a SMILES comes first, the peptide text is derived from it. [ ]: non-standard residue; d: D form.
observed property: IC50

Problem: Consider the compound shown here: CC[C@H](C)[C@H](NC(=O)CNC(=O)[C@H](CO)NC(=O)[C@H](CC(C)C)NC(=O)[C@@H](N)Cc1ccccc1)C(=O)N[C@H](C(=O)NCC(=O)N[C@@H](CCSC)C(=O)N[C@@H](CC(C)C)C(=O)N[C@H](C)C(=O)N[C@@H](CCCCN)C(=O)N[C@@H](CC(C)C)C(=O)N[C@@H](Cc1ccccc1)C(N)=O)C(C)C [peptide 4, F-L-S-G-I-V-G-M-L-a-K-L-F] (H-FLSGIVGML[dA]KLF-NH2) What is its recorded IC50?
Result: 16 to 24 µM

----------
Test system: MCF-7 human breast cancer cell line
method notes: MTT cytotoxicity assay, MCF-7 cells
Format: cell-based
condition info: MTT, 48 hours; read-out: Cytotoxicity IC50, MCF-7
Where a SMILES comes first, the peptide text is derived from it. [ ]: non-standard residue; d: D form.
observed property: IC50 (µM)
Express your answer in µM, writing the number without its unit.

Completed entries (count: 2):
• CC[C@H](C)[C@H](NC(=O)CNC(=O)[C@H](CO)NC(=O)[C@H](CC(C)C)NC(=O)[C@@H](N)Cc1ccccc1)C(=O)N[C@H](C(=O)NCC(=O)N[C@@H](CCSC)C(=O)N[C@@H](CC(C)C)C(=O)N[C@H](C)C(=O)N[C@@H](CCCCN)C(=O)N[C@@H](CC(C)C)C(=O)N[C@@H](Cc1ccccc1)C(N)=O)C(C)C [peptide 4, F-L-S-G-I-V-G-M-L-a-K-L-F] (H-FLSGIVGML[dA]KLF-NH2) = 16.2
• CC[C@H](C)[C@H](NC(=O)CNC(=O)[C@H](CO)NC(=O)[C@H](CC(C)C)NC(=O)[C@@H](N)Cc1ccccc1)C(=O)N[C@H](C(=O)NCC(=O)N[C@@H](CCSC)C(=O)N[C@@H](CC(C)C)C(=O)NCC(=O)N[C@@H](CCCCN)C(=O)N[C@@H](CC(C)C)C(=O)N[C@@H](Cc1ccccc1)C(N)=O)C(C)C [peptide 1, F-L-S-G-I-V-G-M-L-G-K-L-F, reference compound] (H-FLSGIVGMLGKLF-NH2) = 14.5

Okay, now this compound:
Problem: Consider the compound shown here: CC[C@H](C)[C@H](NC(=O)[C@@H](C)NC(=O)[C@H](CO)NC(=O)[C@H](CC(C)C)NC(=O)[C@@H](N)Cc1ccccc1)C(=O)N[C@H](C(=O)NCC(=O)N[C@@H](CCSC)C(=O)N[C@@H](CC(C)C)C(=O)NCC(=O)N[C@@H](CCCCN)C(=O)N[C@@H](CC(C)C)C(=O)N[C@@H](Cc1ccccc1)C(N)=O)C(C)C [compound 2, F-L-S-a-I-V-G-M-L-G-K-L-F] (H-FLS[dA]IVGMLGKLF-NH2) What is its recorded IC50?
Result: 17.9

----------
System: HeLa cells
method notes: MTT cytotoxicity assay, HeLa cells
Format: cell-based
condition info: human, 48 h
Where a SMILES comes first, the peptide text is derived from it. [ ]: non-standard residue; d: D form.
observed property: IC50

Completed entries (count: 2):
- CC[C@H](C)[C@H](NC(=O)CNC(=O)[C@H](CO)NC(=O)[C@H](CC(C)C)NC(=O)[C@@H](N)Cc1ccccc1)C(=O)N[C@H](C(=O)N[C@H](C)C(=O)N[C@@H](CCSC)C(=O)N[C@@H](CC(C)C)C(=O)NCC(=O)N[C@@H](CCCCN)C(=O)N[C@@H](CC(C)C)C(=O)N[C@@H](Cc1ccccc1)C(N)=O)C(C)C [compound 3, F-L-S-G-I-V-a-M-L-G-K-L-F] (H-FLSGIV[dA]MLGKLF-NH2): > 100 µM
- CC[C@H](C)[C@H](NC(=O)[C@@H](C)NC(=O)[C@H](CO)NC(=O)[C@H](CC(C)C)NC(=O)[C@@H](N)Cc1ccccc1)C(=O)N[C@H](C(=O)N[C@H](C)C(=O)N[C@@H](CCSC)C(=O)N[C@@H](CC(C)C)C(=O)N[C@H](C)C(=O)N[C@@H](CCCCN)C(=O)N[C@@H](CC(C)C)C(=O)N[C@@H](Cc1ccccc1)C(N)=O)C(C)C [compound 6, F-L-S-a-I-V-a-M-L-a-K-L-F] (H-FLS[dA]IV[dA]ML[dA]KLF-NH2): > 100 µM

Okay, now this compound:
Problem: Consider the compound shown here: CC[C@H](C)[C@H](NC(=O)[C@@H](C)NC(=O)[C@H](CO)NC(=O)[C@H](CC(C)C)NC(=O)[C@@H](N)Cc1ccccc1)C(=O)N[C@H](C(=O)N[C@H](C)C(=O)N[C@@H](CCSC)C(=O)N[C@@H](CC(C)C)C(=O)NCC(=O)N[C@@H](CCCCN)C(=O)N[C@@H](CC(C)C)C(=O)N[C@@H](Cc1ccccc1)C(N)=O)C(C)C [compound 5, F-L-S-a-I-V-a-M-L-G-K-L-F] (H-FLS[dA]IV[dA]MLGKLF-NH2) What is its recorded IC50?
Result: > 100 µM

----------
Tested on: MCF-7 human breast cancer cell line
method notes: MTT cytotoxicity assay, MCF-7 cells
Format: cell-based
condition info: MTT, 48 hours; listed as SEQ ID NO: 4; read-out: Cytotoxicity IC50, MCF-7
Where a SMILES comes first, the peptide text is derived from it. [ ]: non-standard residue; d: D form.
observed property: IC50

Problem: Consider the molecule shown here: CC[C@H](C)[C@H](NC(=O)CNC(=O)[C@H](CO)NC(=O)[C@H](CC(C)C)NC(=O)[C@@H](N)Cc1ccccc1)C(=O)N[C@H](C(=O)NCC(=O)N[C@@H](CCSC)C(=O)N[C@@H](CC(C)C)C(=O)N[C@H](C)C(=O)N[C@@H](CCCCN)C(=O)N[C@@H](CC(C)C)C(=O)N[C@@H](Cc1ccccc1)C(N)=O)C(C)C [peptide 4, F-L-S-G-I-V-G-M-L-a-K-L-F] (H-FLSGIVGML[dA]KLF-NH2) What is its recorded IC50?
Result: 16 to 24 µM

----------
Tested on: HeLa cells
method notes: MTT cytotoxicity assay, HeLa cells
Format: cell-based
condition info: MTT, 48 hours; read-out: Cytotoxicity IC50, HeLa
Where a SMILES comes first, the peptide text is derived from it. [ ]: non-standard residue; d: D form.
Property: IC50; scope: individual compounds

Completed entries (count: 2):
* CC[C@H](C)[C@H](NC(=O)CNC(=O)[C@H](CO)NC(=O)[C@H](CC(C)C)NC(=O)[C@@H](N)Cc1ccccc1)C(=O)N[C@H](C(=O)NCC(=O)N[C@@H](CCSC)C(=O)N[C@@H](CC(C)C)C(=O)N[C@H](C)C(=O)N[C@@H](CCCCN)C(=O)N[C@@H](CC(C)C)C(=O)N[C@@H](Cc1ccccc1)C(N)=O)C(C)C [peptide 4, F-L-S-G-I-V-G-M-L-a-K-L-F] (H-FLSGIVGML[dA]KLF-NH2) | 22.7 µM
* CC[C@H](C)[C@H](NC(=O)CNC(=O)[C@H](CO)NC(=O)[C@H](CC(C)C)NC(=O)[C@@H](N)Cc1ccccc1)C(=O)N[C@H](C(=O)NCC(=O)N[C@@H](CCSC)C(=O)N[C@@H](CC(C)C)C(=O)NCC(=O)N[C@@H](CCCCN)C(=O)N[C@@H](CC(C)C)C(=O)N[C@@H](Cc1ccccc1)C(N)=O)C(C)C [peptide 1, F-L-S-G-I-V-G-M-L-G-K-L-F, reference compound] (H-FLSGIVGMLGKLF-NH2) | 18.4 µM

Okay, now this compound:
Problem: Consider the compound shown here: CC[C@H](C)[C@H](NC(=O)[C@@H](C)NC(=O)[C@H](CO)NC(=O)[C@H](CC(C)C)NC(=O)[C@@H](N)Cc1ccccc1)C(=O)N[C@H](C(=O)NCC(=O)N[C@@H](CCSC)C(=O)N[C@@H](CC(C)C)C(=O)NCC(=O)N[C@@H](CCCCN)C(=O)N[C@@H](CC(C)C)C(=O)N[C@@H](Cc1ccccc1)C(N)=O)C(C)C [compound 2, F-L-S-a-I-V-G-M-L-G-K-L-F] (H-FLS[dA]IVGMLGKLF-NH2) What is its recorded IC50?
Result: > 100 µM
